phosphorylation enrichment values by entry
# Assayed system: Fyn (UniProt P06241)
# Sequence (P06241 whole entry, looked up): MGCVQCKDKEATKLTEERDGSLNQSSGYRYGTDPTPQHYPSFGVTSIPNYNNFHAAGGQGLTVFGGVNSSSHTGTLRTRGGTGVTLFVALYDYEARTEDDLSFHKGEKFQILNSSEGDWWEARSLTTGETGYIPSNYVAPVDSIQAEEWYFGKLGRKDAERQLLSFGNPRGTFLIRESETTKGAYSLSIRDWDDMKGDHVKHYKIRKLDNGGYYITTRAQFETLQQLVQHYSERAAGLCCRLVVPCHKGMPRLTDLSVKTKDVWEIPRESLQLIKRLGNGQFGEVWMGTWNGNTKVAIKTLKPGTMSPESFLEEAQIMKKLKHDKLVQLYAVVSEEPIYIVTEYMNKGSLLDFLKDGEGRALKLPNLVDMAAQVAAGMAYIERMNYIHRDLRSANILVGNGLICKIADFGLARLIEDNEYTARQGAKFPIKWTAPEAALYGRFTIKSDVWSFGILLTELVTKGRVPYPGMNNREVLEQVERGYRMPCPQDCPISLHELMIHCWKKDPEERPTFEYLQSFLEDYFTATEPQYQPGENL
# Test summary: phosphorylation enrichment, bacterial display (enrichment ratio); higher = better substrate or ligand; peptides without Tyr show the background;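 further: 11-residue human phosphosite peptides and single-mutation variants displayed on the E. coli surface, counted by deep sequencing, each peptide's frequency after selection divided by its frequency in the unselected input library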;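 further: frequency after pTyr selection over input frequency; kinase dosed for 20-30% of maximal phosphorylation in three min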
Keep it simple and answer with nothing but the number.

Task: Entry LRTAVHHEILI [CREBBP_Y1450_Y1450H] : reported phosphorylation enrichment = ?
Result: 0.508

Task: Entry DRTVHYVDEKG [IFT140_Y216_G212R] : reported phosphorylation enrichment = ?
Result: 0.429

Task: Entry FSAPNYCFRCG [PPP2CA_Y265_YF] : reported phosphorylation enrichment = ?
Result: 0.349

Task: Entry QFLMMYVWSAS [ABCD1_Y337_K336M] : reported phosphorylation enrichment = ?
Result: 0.465

Task: Entry DEDYLCREELA [POR_Y575_Y575C] : reported phosphorylation enrichment = ?
Result: 0.878

Task: Entry EERKTYVNTTL [TEK_Y1102] : reported phosphorylation enrichment = ?
Result: 0.45

Task: Entry EKMWSYMKSAE [GRIA3_Y705] : reported phosphorylation enrichment = ?
Result: 0.802

Task: Entry REVPVYTYSEP [FAM120B_Y368_D370Y] : reported phosphorylation enrichment = ?
Result: 9.05

Task: Entry TVDASYYGGRG [ANTXR2_Y380] : reported phosphorylation enrichment = ?
Result: 0.73

Task: Entry HGDDDYDDPEL [CLNK_Y69_S65G] : reported phosphorylation enrichment = ?
Result: 0.69

Task: Entry MSGDVYSTDYY [NTRK2_Y702_R699G] : reported phosphorylation enrichment = ?
Result: 4.31

Task: Entry VTPVMYTYDEY [COL10A1_Y623_G618V] : reported phosphorylation enrichment = ?
Result: 1.61

Task: Entry LDFPEYNGVDR [CASQ1_Y43_D44N] : reported phosphorylation enrichment = ?
Result: 1.43

Task: Entry RGDTVYTVNCM [KBTBD13_Y404_R408C] : reported phosphorylation enrichment = ?
Result: 3.11

Task: Entry GHLYACDWISI [BEST1_Y227_Y227C] : reported phosphorylation enrichment = ?
Result: 1.06

Task: Entry WDLSEYSYKDP [ITGA3_Y237] : reported phosphorylation enrichment = ?
Result: 0.914

Task: Entry AISEGYKDFRA [CDA_Y79_V75I] : reported phosphorylation enrichment = ?
Result: 0.323

Task: Entry AEPPDYSPVTQ [ADGRG2_Y285_H290Q] : reported phosphorylation enrichment = ?
Result: 0.444

Task: Entry HPFHVYSQPGM [BAG3_Y114_P115S] : reported phosphorylation enrichment = ?
Result: 1.24

Task: Entry TEFSQYMRRKN [MAX_Y73_I71S_YF] : reported phosphorylation enrichment = ?
Result: 0.647

Task: Entry TFGNLYGSRKQ [YIPF7_Y59_A54T_YF] : reported phosphorylation enrichment = ?
Result: 0.911

Task: Entry HNVPIYEGFAL [ACTA1_Y168_YF] : reported phosphorylation enrichment = ?
Result: 15.1

Task: Entry KATKGYLDDPT [G6PD_Y322_E317K] : reported phosphorylation enrichment = ?
Result: 0.405

Task: Entry NTEGGYCCICA [CRELD1_Y328_R329C] : reported phosphorylation enrichment = ?
Result: 0.512

Task: Entry DPEAAYTTRGG [EPHA3_Y779] : reported phosphorylation enrichment = ?
Result: 0.531
